TEST PROTOCOL: PIT-slope characterization
Format: physicochemical
SETUP CONDITIONS: molar fraction; added to 3%C10E4/n-octane/10^−2 M NaClaq
# key: entry, value: dPIT/dx
MEASUREMENT NAME: dPIT/dx (°C)

COMPOUND | VALUE MEASURED
CCCCCCCCCCCCCCO[C@@H]1O[C@H](CO)[C@@H](O[C@H]2O[C@H](CO)[C@@H](O)[C@H](O)[C@H]2O)[C@H](O)[C@H]1O [β-D-Maltoside C14] | 80.7
CCCCCCCCCCO[C@@H]1O[C@H](CO)[C@@H](O)[C@H](O)[C@H]1O [β-D-Glucoside C10] | 47.8
CCCCCCCCCCCCO[C@@H]1O[C@H](CO)[C@@H](O[C@H]2O[C@H](CO)[C@@H](O)[C@H](O)[C@H]2O)[C@H](O)[C@H]1O [β-D-Maltoside C12, n-dodecyl-β-D-maltoside] | 112.2
CCCCCCCCCCO[C@@H]1O[C@H](CO)[C@@H](O[C@H]2O[C@H](CO)[C@@H](O)[C@H](O)[C@H]2O)[C@H](O)[C@H]1O [β-D-Maltoside C10] | 123.0
CCCCCCCCO[C@@H]1O[C@H](CO)[C@@H](O)[C@H](O)[C@H]1O [β-D-Glucoside C8, n-octyl-β-D-glucoside] | 77.8
CCCCCCCCCCCCO[C@@H]1O[C@H](CO)[C@@H](O)[C@H](O)[C@H]1O [β-D-Glucoside C12] | 27.0
CCCCCCCCCCCCCCCCO[C@@H]1O[C@H](CO)[C@@H](O[C@H]2O[C@H](CO)[C@@H](O)[C@H](O)[C@H]2O)[C@H](O)[C@H]1O [β-D-Maltoside C16] | 74.3
